Assay target: T1, Human TIGIT protein with HIS tag (human, UniProt Q495A1 22-141)
T1 construct: A soluble analyte is probably only the extracellular part; also called human TIGIT recombinant protein; not shown: HIS tag
T1 sequence: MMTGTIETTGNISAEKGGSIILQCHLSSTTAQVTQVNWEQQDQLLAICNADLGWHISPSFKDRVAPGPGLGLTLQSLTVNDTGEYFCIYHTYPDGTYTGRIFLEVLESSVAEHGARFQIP
Assay procedure: SPR Biacore T200; antibody Fc-captured, TIGIT-His analyte
Property: kon; scope: individual binders

Binder: 16F10H12C11 (antibody, V domains shown, Mouse monoclonal antibody; also called mouse anti-human TIGIT monoclonal antibody 16F10H12C11) VH: EVLLQQSGPELVKPGASVKIPCKASGYTFTDYNIDWVKQSHGKSLEWIGDINPNTGGTIYNQKFKGKATLTVDKSSSTAYMELRSLTSEDTAVYYCARRWLLLVYAVDYWGQGTSVTVSS VL: QIVLTQSPAIMSASPGEKVTISCSASSSVTYMYWYQQKAGSSPKPWIYRTSNLASGVPARFGGSGSGTSYSLTISSMEAEDAATYYCQQYHSFPPTFGGGTKLEIK
Unit symbol: M⁻¹ s⁻¹
kon: 6.7e+07

Binder: 92E9D4B4 (antibody, V domains shown, Mouse monoclonal antibody; also called mouse anti-human TIGIT monoclonal antibody 92E9D4B4) VH: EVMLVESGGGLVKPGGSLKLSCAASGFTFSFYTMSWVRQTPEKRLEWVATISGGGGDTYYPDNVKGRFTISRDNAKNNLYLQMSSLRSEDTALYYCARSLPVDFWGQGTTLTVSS VL: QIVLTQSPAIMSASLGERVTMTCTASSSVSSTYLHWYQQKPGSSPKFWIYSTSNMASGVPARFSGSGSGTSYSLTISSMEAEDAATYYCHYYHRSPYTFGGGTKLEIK
Unit symbol: M⁻¹ s⁻¹
kon: 710000

Binder: 70A11A8E6 (antibody, V domains shown, Mouse monoclonal antibody; also called mouse anti-human TIGIT monoclonal antibody 70A11A8E6) VH: DVQLQESGPGLVKPSQSLSLTCTVTGYSITSDYAWNWIRQFPGNKLEWMGYIIYSGSTSYNPSLKSRISITRDTSKNQFFLQLNSVTTEDTATYYCARGWFRRPDYWGQGTTLTVSS VL: DIVMTQSHEFMSTSLGDRVSITCKASQDVSTAVAWHQQKPGQSPKQLIYSASYRYTGVPDRFTGSGSGTDFTFTISNMQAEDLAVYYCQQHYSVPLTFGAGTKLELK
Unit symbol: M⁻¹ s⁻¹
kon: 860000

Binder: 48B5G4E12 (antibody, V domains shown, Mouse monoclonal antibody; also called mouse anti-human TIGIT monoclonal antibody 48B5G4E12) VH: QVQLQQPGAELVKPGASVKMSCKASGYTFTSYNMHWVKQTPGQGLEWIGGIYPGNGATSYNQKFKGKATLTADKSSSTAYMQLSSLTSEDSAVYYCARSGLRAMDYWGQGTSVTVSS VL: QIVLTQSPAIMSASPGEKVTMTCSASSSVSYMYWYQQKTGSSPRLLIYDTSNLASGVPVRFSGSGSGTSYSLTISRMEAEDAATYYCQQWSSYPYTFGGGTKLEIK
Unit symbol: M⁻¹ s⁻¹
kon: 840000

Binder: 8F2D8E7 (antibody, V domains shown, Mouse monoclonal antibody; also called mouse anti-human TIGIT monoclonal antibody 8F2D8E7) VH: QVQLQQSGAELVKPGASVKLSCKTSGYTFTSYWIQWIKQRPGQGLGWIGEIFPGTGTTYYNEKFKGKATLTIDTSSSTAYMQLSSLTSEDSAVYSCARSRDGKVVDYWGQGTSVTVSS VL: DVQMTQTTSSLSASLGDRVTISCRASQDISNFLNWYQQRPDGTVKLLIYYTSKLHSGVPSRFSGSGSGTDYSLTIRNLEKEDIATYFCQQGNTPPYTFGGGTKLEIK
Unit symbol: M⁻¹ s⁻¹
kon: 1.3e+06
